Source listed as paper PMC9516332.

For each record, write down the corresponding inhibition at 1 µM.
Biological target: panel of 255 wild-type kinases (Homo sapiens)
Sequence (Q8N568 whole entry): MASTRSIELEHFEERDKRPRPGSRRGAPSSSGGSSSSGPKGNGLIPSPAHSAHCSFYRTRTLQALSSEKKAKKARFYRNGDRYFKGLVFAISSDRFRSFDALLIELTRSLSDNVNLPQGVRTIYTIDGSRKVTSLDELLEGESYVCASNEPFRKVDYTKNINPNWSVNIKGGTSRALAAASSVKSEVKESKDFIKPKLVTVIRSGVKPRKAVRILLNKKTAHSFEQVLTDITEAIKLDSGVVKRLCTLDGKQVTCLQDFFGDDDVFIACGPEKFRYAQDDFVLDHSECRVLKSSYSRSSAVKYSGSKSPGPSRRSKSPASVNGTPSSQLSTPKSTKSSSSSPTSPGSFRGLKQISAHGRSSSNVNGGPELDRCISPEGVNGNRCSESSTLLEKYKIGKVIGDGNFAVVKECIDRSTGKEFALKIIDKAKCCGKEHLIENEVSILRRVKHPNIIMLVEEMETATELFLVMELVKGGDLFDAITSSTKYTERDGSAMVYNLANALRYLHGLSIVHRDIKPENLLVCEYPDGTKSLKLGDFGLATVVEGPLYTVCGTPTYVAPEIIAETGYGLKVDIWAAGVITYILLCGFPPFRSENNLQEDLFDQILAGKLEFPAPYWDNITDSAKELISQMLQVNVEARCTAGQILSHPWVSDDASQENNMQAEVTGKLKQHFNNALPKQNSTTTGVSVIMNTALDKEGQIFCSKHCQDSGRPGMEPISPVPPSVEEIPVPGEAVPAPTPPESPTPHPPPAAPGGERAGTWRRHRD
Assay: Kinase panel profiling at 1 µmol/L (MSA or IMAP), percentage inhibition
Type: biochemical
Settings: kinase DCAMKL2; 1 µmol/L single concentration; read-out: %-inhibition at 1 µmol/L, DCAMKL2
A number alone suffices; assume %.

In: Return reported inhibition at 1 µM; argument: Cn1cnc2c(F)c(Nc3ccc(Br)cc3F)c(C(=O)NOCCO)cc21
Out: -13

In: Return reported inhibition at 1 µM; argument: CO[C@]1(C(=O)N[C@@H](C)c2ccc(-n3cc(F)cn3)nc2)CC[C@H](c2nc(C)cc(Nc3cc(C)[nH]n3)n2)CC1
Out: 1.65

In: Return reported inhibition at 1 µM; argument: FC(F)(F)c1ccc(CNc2ccc(Cc3c[nH]c4ncc(Cl)cc34)cn2)cn1
Out: 3.25

In: Return reported inhibition at 1 µM; argument: COC(=O)N[C@@H](C)CNc1nccc(-c2cn(C(C)C)nc2-c2cc(Cl)cc(NS(C)(=O)=O)c2F)n1
Out: -12

In: Return reported inhibition at 1 µM; argument: O=C(Nc1cnn2ccc(N3CCC[C@@H]3c3cc(F)ccc3F)nc12)N1CC[C@H](O)C1
Out: 0.701

In: Return reported inhibition at 1 µM; argument: CCc1nc(C(N)=O)c(Nc2ccc(N3CCC(N4CCN(C)CC4)CC3)c(OC)c2)nc1NC1CCOCC1
Out: 11

In: Return reported inhibition at 1 µM; argument: CN1CCN(c2ccc(C(=O)Nc3n[nH]c4ccc(Cc5cc(F)cc(F)c5)cc34)c(NC3CCOCC3)c2)CC1
Out: 16

In: Return reported inhibition at 1 µM; argument: CCn1c(=O)c(-c2cc(NC(=O)Nc3ccccc3)c(F)cc2Br)cc2cnc(NC)cc21
Out: 2

In: Return reported inhibition at 1 µM; argument: C=CC(=O)N1CCC([C@@H]2CCNc3c(C(N)=O)c(-c4ccc(Oc5ccccc5)cc4)nn32)CC1
Out: 0.323

In: Return reported inhibition at 1 µM; argument: C[C@H]1Oc2cc(cnc2N)-c2c(nn(C)c2C#N)CN(C)C(=O)c2ccc(F)cc21
Out: 74

In: Return reported inhibition at 1 µM; argument: COc1ccc(CN2C3CC2CN(c2ccc(-c4cc(OCC(C)(C)O)cn5ncc(C#N)c45)cn2)C3)cn1
Out: 1.22

In: Return reported inhibition at 1 µM; argument: C[C@H](Nc1ncnc2nc[nH]c12)c1cc2cccc(Cl)c2c(=O)n1-c1ccccc1
Out: 7.51

In: Return reported inhibition at 1 µM; argument: CCN1C(=O)N(c2c(F)c(OC)cc(OC)c2F)Cc2cnc3[nH]c(CN4CCOCC4)cc3c21
Out: 27

In: Return reported inhibition at 1 µM; argument: Cn1cnc2c(F)c(Nc3ccc(Br)cc3Cl)c(C(=O)NOCCO)cc21
Out: 0.902

In: Return reported inhibition at 1 µM; argument: Cc1nc(NC(=O)N2CCC[C@H]2C(N)=O)sc1-c1ccnc(C(C)(C)C(F)(F)F)c1
Out: 6.52
